As an illustration, consider measured IC50 for compounds on GCN2 kinase (Homo sapiens (Human), UniProt Q9P2K8).
Sequence (Q9P2K8 whole entry): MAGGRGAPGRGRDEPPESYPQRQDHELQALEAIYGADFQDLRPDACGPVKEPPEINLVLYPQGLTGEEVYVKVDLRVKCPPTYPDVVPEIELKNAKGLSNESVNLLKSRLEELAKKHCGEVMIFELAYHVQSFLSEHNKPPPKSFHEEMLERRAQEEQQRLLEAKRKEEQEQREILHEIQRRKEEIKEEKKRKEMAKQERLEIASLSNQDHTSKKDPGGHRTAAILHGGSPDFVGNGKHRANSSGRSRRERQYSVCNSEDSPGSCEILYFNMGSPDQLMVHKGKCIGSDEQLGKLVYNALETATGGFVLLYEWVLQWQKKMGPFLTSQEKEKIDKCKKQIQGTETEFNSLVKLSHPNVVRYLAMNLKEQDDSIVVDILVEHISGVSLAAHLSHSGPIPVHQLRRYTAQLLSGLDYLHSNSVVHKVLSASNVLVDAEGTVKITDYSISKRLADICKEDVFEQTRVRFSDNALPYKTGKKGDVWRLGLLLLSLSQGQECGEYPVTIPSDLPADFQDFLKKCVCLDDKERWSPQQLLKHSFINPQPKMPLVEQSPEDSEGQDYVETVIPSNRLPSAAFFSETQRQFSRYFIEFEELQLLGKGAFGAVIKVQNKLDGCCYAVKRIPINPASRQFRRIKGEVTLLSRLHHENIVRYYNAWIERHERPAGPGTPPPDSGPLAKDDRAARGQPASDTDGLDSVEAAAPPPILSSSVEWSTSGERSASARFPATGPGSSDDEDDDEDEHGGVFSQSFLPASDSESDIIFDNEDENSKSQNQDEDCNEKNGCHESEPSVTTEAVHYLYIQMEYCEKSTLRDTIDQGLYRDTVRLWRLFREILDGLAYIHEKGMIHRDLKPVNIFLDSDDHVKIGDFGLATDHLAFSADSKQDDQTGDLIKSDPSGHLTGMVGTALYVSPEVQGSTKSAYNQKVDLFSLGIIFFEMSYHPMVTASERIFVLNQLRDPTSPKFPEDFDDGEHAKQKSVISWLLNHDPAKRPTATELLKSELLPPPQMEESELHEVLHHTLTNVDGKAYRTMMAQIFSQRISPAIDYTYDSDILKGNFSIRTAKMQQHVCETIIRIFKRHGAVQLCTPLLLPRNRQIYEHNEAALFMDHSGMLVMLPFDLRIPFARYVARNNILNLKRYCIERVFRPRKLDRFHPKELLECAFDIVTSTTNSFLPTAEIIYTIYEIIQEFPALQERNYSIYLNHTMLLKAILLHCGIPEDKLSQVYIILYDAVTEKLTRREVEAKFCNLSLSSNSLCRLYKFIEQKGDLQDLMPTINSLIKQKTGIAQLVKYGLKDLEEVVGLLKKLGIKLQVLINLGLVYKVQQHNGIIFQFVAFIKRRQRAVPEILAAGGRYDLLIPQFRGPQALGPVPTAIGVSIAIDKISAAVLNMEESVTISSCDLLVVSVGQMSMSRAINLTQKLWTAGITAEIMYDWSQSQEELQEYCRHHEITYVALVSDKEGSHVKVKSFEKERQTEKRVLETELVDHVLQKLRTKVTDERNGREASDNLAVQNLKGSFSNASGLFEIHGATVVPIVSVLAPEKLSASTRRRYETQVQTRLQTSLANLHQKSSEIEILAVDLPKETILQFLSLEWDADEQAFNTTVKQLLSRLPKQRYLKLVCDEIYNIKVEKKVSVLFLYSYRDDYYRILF

Would you please look over these solved cases?
FC(F)(F)c1ccc2ncc(-c3nccc(N4CCN(CC5C6COCC65)C(c5cn[nH]c5)C4)n3)n2c1 (stereo not shown) | < 10 nM
Cc1nn(C)cc1[C@H]1C[C@H](C)CN(c2nccc(-c3cnc4ccc(C(F)(F)F)cn34)n2)C1 | 100 to 1000 nM
C[C@H]1C[C@@H](N=S(C)(C)=O)CN(c2ccnc(-c3cnc4ccc(Cl)cn34)n2)C1 (stereo in doubt) | 10 to 100 nM
O=C(C1CC1)N1CCN(c2ccnc(-c3cnc4ccc(C(F)(F)F)cn34)n2)CC1c1cn[nH]c1 (stereo not shown) | 10 to 100 nM
C[C@H]1CN(c2nccc(-c3cnc4ccc(C(F)(F)F)cn34)n2)C[C@H](c2cn[nH]c2)O1 | 10 to 100 nM

# evaluate next
Query IC50 for CN(C)C(=O)C1CCCN(c2ccnc(-c3cnc4ccc(C(F)(F)F)cn34)n2)C1 (stereo not shown) 10 to 100 nM

---

pIC50: −log10 of the molar value.
Quick record: pIC50, GCN2 kinase (Homo sapiens (Human)).

Solved entries (count: 4):
NC(=O)C1CC(F)CN(c2ccnc(-c3cnc4ccc(C(F)(F)F)cn34)n2)C1 (stereo not drawn) [I-229] | > 8.00
Cc1[nH]ncc1C1NCCN(c2ccnc(-c3cnc4ccc(C(F)(F)F)cn34)n2)C1C (stereo not drawn) [I-321] | 7.00 to 8.00
C[C@H]1[C@@H](C(N)=O)NCCN1c1ccnc(-c2cnc3ccc(C(F)(F)F)cn23)n1 [I-435] | > 8.00
COCCN1CCN(c2ccnc(-c3cnc4ccc(C(F)(F)F)cn34)n2)CC1C(N)=O (stereo not drawn) [I-258] | 7.00 to 8.00

Answer briefly: pIC50 recorded on GCN2 kinase (Homo sapiens (Human)) for Cc1n[nH]nc1[C@@H]1C[C@H](C)CN(c2ccnc(-c3cnc4ccc(C(F)(F)F)cn34)n2)C1 [I-409] 7.00 to 8.00

// output pIC50; input CC1(O)CC(C(=O)N2CCN(c3ccnc(-c4cnc5ccc(C(F)(F)F)cn45)n3)CC2c2cn[nH]c2)C1 (stereo not drawn) [I-509] ; system GCN2 kinase (Homo sapiens (Human)) 6.00 to 7.00

Fill in: pIC50 on GCN2 kinase (Homo sapiens (Human)), entry C[C@H]1CN(c2nccc(-c3cnc4ccc(Cl)cn34)n2)C[C@H](c2cn[nH]c2)O1 [I-246] 7.00 to 8.00

GET pIC50 | system: GCN2 kinase (Homo sapiens (Human)) | item: NC(=O)[C@H]1CCCN(c2nccc(-c3cnc4ccc(C(F)(F)F)cn34)n2)C1 [I-153] > 8.00

Under GCN2 kinase (Homo sapiens (Human)), report pIC50 for C[C@@H]1C[C@@H](c2cn[nH]c2)CN(c2nccc(-c3cnc4ccc(Cl)cn34)n2)C1 (stereo in doubt) [I-195] 7.00 to 8.00

---

In this section we review reported pIC50 values for a set of compounds.
- TARGET_UNDER_TEST: GCN2 kinase (Homo sapiens (Human), UniProt Q9P2K8)
pIC50: −log10 of the molar value.

Cc1n[nH]cc1[C@@H]1CN(c2ccnc(-c3cnc4cc(Cl)c(C(F)(F)F)cn34)n2)C[C@@H](C)O1 | > 8.00
Clc1ccc2ncc(-c3nccc(N4CCCC5(CNC5)C4)n3)n2c1 | 6.00 to 7.00
FC(F)(F)c1ccc2ncc(-c3nccc(N4CCN(Cc5cocn5)C(c5cn[nH]c5)C4)n3)n2c1 (stereo not drawn) | > 8.00

Answer with pIC50 of `CC1(C)CN(c2ccnc(-c3cnc4ccc(C(F)F)cn34)n2)CC2(CN(S(C)(=O)=O)C2)O1` measured for GCN2 kinase (Homo sapiens (Human), UniProt Q9P2K8). 7.00 to 8.00

Look up and report measured pIC50 (GCN2 kinase (Homo sapiens (Human), UniProt Q9P2K8)) for the following compound: `Cc1nn(C)cc1C(=O)N1CCN(c2ccnc(-c3cnc4ccc(C(F)(F)F)cn34)n2)C[C@@H]1C` 6.00 to 7.00

With GCN2 kinase (Homo sapiens (Human), UniProt Q9P2K8) as the test system, provide measured pIC50 for this compound: `Cc1[nH]ncc1[C@H]1CN(c2ccnc(-c3cnc4cc(F)c(Cl)cn34)n2)C[C@@H](C)O1` > 8.00

Under GCN2 kinase (Homo sapiens (Human), UniProt Q9P2K8), report pIC50 for `Cc1[nH]ncc1[C@@H]1CN(c2ccnc(-c3cnc4cc(F)c(C5CC5)cn34)n2)C[C@H](C)O1` > 8.00

Specify pIC50 for NC(=O)C1CCCN(c2nc(-c3cnc4ccc(C(F)(F)F)cn34)ncc2F)C1 (stereo in doubt) , system GCN2 kinase (Homo sapiens (Human), UniProt Q9P2K8). 6.00 to 7.00

Return reported pIC50 for target or system GCN2 kinase (Homo sapiens (Human), UniProt Q9P2K8), item `Cc1[nH]ncc1[C@@H]1CN(c2nccc(-c3cnc4ccc(Cl)cn34)n2)C[C@H](C)O1` . > 8.00
